- System: RSV A2 strain
- Protocol: In vitro CPE (CytoPathic Effect) inhibition effect evaluation test, RSV type A
- Type: cell-based
- Test context: human respiratory syncytial virus; inhibitory effect against RSV type A (RSV A2 strain), HEp-2 cells, CPE inhibition; read-out: EC50
Endpoint: EC50

Some molecules with recorded EC50:
[
  {
    "Molecule": "O=C(NC1(C(=O)O)C2CC3CC(C2)CC1C3)c1cnc(-c2cn(C3CCC(F)(F)CC3)c3cc(O[C@H]4CC[C@@H](N5CC(F)(F)C5)CC4)ccc23)nc1C(F)(F)F (stereo partly shown)",
    "EC50": "< 10 nM"
  },
  {
    "Molecule": "O=C(NC1(C(=O)O)C2CC3CC(C2)CC1C3)c1ccc(-c2cn(-c3ccc(F)cn3)c3cc(OC4CCN(c5ncccn5)CC4)ccc23)nc1C(F)(F)F (stereo not shown)",
    "EC50": "< 10 nM"
  }
]

Request the reported EC50 associated with O=C(NC1(C(=O)O)C2CC3CC(C2)CC1C3)c1ccc(-c2cn(-c3cccc(F)c3)c3cc(OC4CCN(c5ncccn5)CC4)ccc23)nc1C(F)(F)F (stereo not shown) < 10 nM

Now give it for `Cc1cnn(CCOc2ccc3c(c2)CCN3c2ncc(C(=O)NC3(C(=O)O)CCCCC3)c(C(F)(F)F)n2)c1` too. 10 to 100 nM

###

- Test system: RSV A2 strain
- Protocol: In vitro CPE (CytoPathic Effect) inhibition effect evaluation test, RSV type A
- Assay type: cell-based
- Test context: human respiratory syncytial virus; inhibitory effect against RSV type A (RSV A2 strain), HEp-2 cells, CPE inhibition; read-out: EC50
Endpoint: EC50

[
  {
    "Compound": "CC(=O)N1CC(N2CCC(Oc3ccc4c(c3)C3(CCCCC3)CN4c3ncc(C(=O)NC4(C(=O)O)C5CC6CC(C5)CC4C6)c(C(F)(F)F)n3)CC2)C1 (stereo not shown)",
    "Endpoint": "EC50",
    "Assay value": "< 10 nM"
  }
]

Request the reported EC50 associated with Cc1ccc2c(c1)C1(CCNCC1)CN2c1ncc(C(=O)NC2(C(=O)O)C3CC4CC(C3)CC2C4)c(C(F)(F)F)n1 (stereo not shown) < 10 nM

Now give it for `O=C(NC1(C(=O)O)CCC(F)(F)CC1)c1cnc(N2CCc3cc(OCCC4CCOCC4)ccc32)nc1C(F)(F)F` too. 10 to 100 nM

Now give it for O=C(NC1(C(=O)O)C2CC3CC(C2)CC1C3)c1cnc(-c2cn(C3CCC(F)(F)CC3)c3cc(OC4CCN(c5ncccn5)CC4)ccc23)nc1C(F)(F)F (stereo not shown) too. < 10 nM
